Readings of LD50 for the listed compounds
Test: Toxicity in ip dosed mouse acetic acid wrtihe model
Assay type: organism-based
Details: in vivo
Quick note: give the figure in mg/kg, leave out the unit.

COC[C@@]12CC[C@H](OC)[C@]34C([C@H]([C@H](OC)[C@H]13)[C@]1(OC(C)=O)[C@H]3[C@@H](OC(=O)c5ccccc5)[C@](O)(C[C@H]34)[C@H](OC)[C@@H]1O)N(C)C2
4.37

Query string: Indicate the recorded LD50 value for this compound: `COC[C@@]12CC[C@H](OC)[C@]34C(C([C@H](OC)[C@H]13)[C@]1(OC(C)=O)[C@H]3[C@@H](OC(=O)c5ccccc5)[C@](O)(C[C@H]34)[C@@H](OC)[C@@H]1O)N(C)C2`
Result string: 2.65
